Source listed as the RNAGym collection of RNA variant scans (doi:10.1038/s41586-018-0170-7).

B1: tRNA (parent)
chain: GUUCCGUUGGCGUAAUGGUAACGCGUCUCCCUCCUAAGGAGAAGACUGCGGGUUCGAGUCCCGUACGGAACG

variants of: B1; test: yeast fitness, log relative to wild type (ln ratio); higher = fitter; tRNA-Arg(CCU), competitive growth, 37 C, 1 M NaCl
quantity kind: yeast fitness (ln)

* AUUCCUUUGGCGUAAUGGUAACGCGUCUCCCUCCUAAGGAGACGACUGCGGGUUCGAGUCCCGUACGGGUUG | -0.524
* GGUCCGUUGGCGUAAUGGUAACGCGUUUCCCUCCUAAGGAGACGACUGCGGGUUCGAGUCCCGUACGGGUCG | -0.267
* AUUCCAUUGGCGUAAUGGUAACGCGUCUCCCUCCUAAGGAGACGAUUGCGGGUUCGAGUCCCGUACGGAACG | -0.0957
* GUUCCGUUGGCGUAAUGGUAACGCGUUUCCCUCCUAAGGAGAAGACUGCGGGUUCGAGUCCCGUACGGAGCG | -0.037
* GUUCCAUUGGCGUAAUGGUAACGCGUUUCCCUCCUAAGGAGACGACUGCGGGUUCGAGUCCCGUACGGAAUG | -0.184
* AUUCCGUUGGCGUAAUGGUAACGCGUCUCCCUCCUAAGGAGAAGAUUGCGGGUUCGAGUCCCGUACGGGUCG | -0.0206
* GUUCCGUUGGCGUAAUGGUAACGCGUCUCCCUCCUAAGGAGAAGACUGCGGGUUCGAGUCCCGUACGGAUCG | 0.00232
* AGUCCUUUGGCGUAAUGGUAACGCGUUUCCCUCCUAAGGAGAAGAUUGCGGGUUCGAGUCCCGUAUGGAGUG | -0.307
* AUUCCGUUGGCGUAAUGGUAACGCGUCUCCCUCCUAAGGAGAAGACUGCGGGUUCGAGUCCCGUAUGGGUUG | -0.364
* AGUCCGUUGGCGUAAUGGUAACGCGUCUCCCUCCUAAGGAGACGACUGCGGGUUCGAGUCCCGUAUGGAUCG | -0.185
* AUUCCAUUGGCGUAAUGGUAACGCGUUUCCCUCCUAAGGAGAAGAUUGCGGGUUCGAGUCCCGUACGGGGUG | -0.316
* AUUCCAUUGGCGUAAUGGUAACGCGUCUCCCUCCUAAGGAGACGACUGCGGGUUCGAGUCCCGUACGGGGUG | -0.248
* AUUCCUUUGGCGUAAUGGUAACGCGUCUCCCUCCUAAGGAGAAGACUGCGGGUUCGAGUCCCGUACGGAUUG | -0.213
* GGUCCUUUGGCGUAAUGGUAACGCGUUUCCCUCCUAAGGAGAAGAUUGCGGGUUCGAGUCCCGUAUGGGUUG | -0.336
* GUUCCGUUGGCGUAAUGGUAACGCGUCUCCCUCCUAAGGAGACGACUGCGGGUUCGAGUCCCGUAAGGGUCG | -0.153
* GGUCCUUUGGCGUAAUGGUAACGCGUCUCCCUCCUAAGGAGACGAUUGCGGGUUCGAGUCCCGUAUGGGGCG | -0.267
* AGUCCGUUGGCGUAAUGGUAACGCGUCUCCCUCCUAAGGAGAAGACUGCGGGUUCGAGUCCCGUAUGGAUCG | -0.131
* AGUCCGUUGGCGUAAUGGUAACGCGUUUCCCUCCUAAGGAGAAGAUUGCGGGUUCGAGUCCCGUAAGGAGUG | -0.203
* GGUCCGUUGGCGUAAUGGUAACGCGUCUCCCUCCUAAGGAGAAGACUGCGGGUUCGAGUCCCGUAAGGGGCG | -0.148
* GUUCCGUUGGCGUAAUGGUAACGCGUCUCCCUCCUAAGGAGACGAUUGCGGGUUCGAGUCCCGUAAGGAACG | -0.0152
* GCUCCUUUGGCGUAAUGGUAACGCGUUUCCCUCCUAAGGAGAAGACUGCGGGUUCGAGUCCCGUACGGGAUG | -0.22
* AUUCCGUUGGCGUAAUGGUAACGCGUCUCCCUCCUAAGGAGACGACUGCGGGUUCGAGUCCCGUAUGGAGUG | -0.235
